Recorded Regular Alpha Helix for the following compounds
Target: BSA (Bos taurus, UniProt P02769)
Construct: purchased Millipore Sigma-Aldrich
Sequence (P02769 25-607): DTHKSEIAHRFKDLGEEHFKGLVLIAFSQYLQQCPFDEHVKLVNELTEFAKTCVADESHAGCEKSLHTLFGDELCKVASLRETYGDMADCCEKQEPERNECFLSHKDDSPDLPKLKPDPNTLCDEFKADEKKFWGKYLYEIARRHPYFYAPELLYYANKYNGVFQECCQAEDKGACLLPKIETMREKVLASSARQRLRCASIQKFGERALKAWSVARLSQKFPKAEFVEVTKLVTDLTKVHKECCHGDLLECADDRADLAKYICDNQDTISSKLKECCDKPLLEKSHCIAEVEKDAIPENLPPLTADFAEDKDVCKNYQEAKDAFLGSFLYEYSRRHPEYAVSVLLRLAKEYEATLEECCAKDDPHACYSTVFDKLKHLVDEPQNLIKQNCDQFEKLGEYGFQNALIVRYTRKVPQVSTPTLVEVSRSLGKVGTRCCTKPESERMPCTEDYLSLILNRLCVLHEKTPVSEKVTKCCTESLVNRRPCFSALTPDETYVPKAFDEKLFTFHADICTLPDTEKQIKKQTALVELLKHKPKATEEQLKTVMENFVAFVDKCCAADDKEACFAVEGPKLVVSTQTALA
Assay: Far-UV CD secondary structure of BSA (CONTIN-LL deconvolution)
Format: physicochemical, bovine
Design: unit not given here
Conditions: 1.0 mg/mL BSA, 25 mM component, 25 °C
From the text: Circular dichroism (CD) is widely used to study the secondary structures of proteins, peptides and nucleic acids, because it requires a low concentration sample, is a nondestructive method, allows studying a wide range of variables (temperature, pH, etc.), and provides information on the effect of added ligands on protein folding and interactions. […]
Keep it simple and answer with nothing but the number.

{"columns": ["compound", "property", "endpoint-value"],
 "data": [
  ["OC[C@H]1O[C@@](CO)(O[C@H]2O[C@H](CO)[C@@H](O)[C@H](O)[C@H]2O)[C@@H](O)[C@@H]1O [Sucrose, sucrose]", "Regular Alpha Helix", 0.333],
  ["C[N+](C)(C)CCO.C[N+](C)(C)CCO.O=P([O-])(O)O.O=P([O-])(O)O [[N1112(OH)][H2PO4]]", "Regular Alpha Helix", 0.36],
  ["CCCCn1cc[n+](C)c1.O=S(=O)([O-])C(F)(F)F [[C4C1Im][CF3SO3]]", "Regular Alpha Helix", 0.297],
  ["C[N+](C)(C)CCO.O=S(=O)([O-])C(F)(F)C(F)(F)C(F)(F)C(F)(F)F [[N1112(OH)][C4F9SO3]]", "Regular Alpha Helix", 0.406]
]}

[in] Fill blank: measured Regular Alpha Helix of the compound CCn1cc[n+](C)c1.O=S(=O)([O-])C(F)(F)C(F)(F)C(F)(F)C(F)(F)F is ____.
[out] 0.384

====

molecular target: BSA (Bos taurus); construct: purchased Millipore Sigma-Aldrich; experiment: Far-UV CD secondary structure of BSA (CONTIN-LL deconvolution); assay type: physicochemical, bovine; conditions: 1.0 mg/mL BSA, 55 mM component, 25 °C
Mark 1 (yes) only when Distorted Alpha Helix stays strictly below 0.2. Values equal to the cut-off are 0 (no).

{"columns": ["molecule", "category-label"],
 "data": [
  ["C[N+](C)(C)CCO.C[N+](C)(C)CCO.O=P([O-])(O)O.O=P([O-])(O)O [[N1112(OH)][H2PO4]]", "1 (yes)"],
  ["CCCCn1cc[n+](C)c1.O=S(=O)([O-])C(F)(F)F [[C4C1Im][CF3SO3]]", "0 (no)"]
]}

[in] Check if Distorted Alpha Helix falls below 0.2 for CCn1cc[n+](C)c1.O=S(=O)([O-])C(F)(F)C(F)(F)C(F)(F)C(F)(F)F .
[out] 0 (no)

[in] Hello, I'm reviewing records and need to know if Distorted Alpha Helix of OC[C@H]1O[C@@](CO)(O[C@H]2O[C@H](CO)[C@@H](O)[C@H](O)[C@H]2O)[C@@H](O)[C@@H]1O is below 0.2. Could you check?
[out] 0 (no)

[in] Here's an entry: C[N+](C)(C)CCO.O=S(=O)([O-])C(F)(F)C(F)(F)C(F)(F)C(F)(F)F [[N1112(OH)][C4F9SO3]] . Is its Distorted Alpha Helix below 0.2?
[out] 0 (no)

====

Target: FITC-BSA (Bos taurus, UniProt P02769)
Construct: purchased Millipore Sigma-Aldrich
Sequence (P02769 25-607): as above
Experiment: MST binding to FITC-BSA
Design: species or system bovine
Conditions: 0.41 μM BSA; max. conc. first capillary in 3rd CAC range; read-out: Kd
Protocol: Herein, a commercial FITC labeling kit (Section 3) was used to fluorescently tag both IFN- α 2b and BSA. Typically, in the labeling process, one amine per protein is labeled, statistically distributing the position of the dye. […] The MST assay was performed as detailed in Section 3. The solutions were prepared with a concentration of IFN- α 2b and BSA fixed at 0.41 μ M in water. […]
property: Kd
Answer with the value and then the unit.

[in] Given the entry CCn1cc[n+](C)c1.O=S(=O)([O-])C(F)(F)C(F)(F)C(F)(F)C(F)(F)F , report its measured Kd.
[out] 2.86 mM

====

target: BSA (Bos taurus, UniProt P02769); construct: purchased Millipore Sigma-Aldrich; assay: DSC thermal unfolding of BSA in water and aqueous solutions of ABS phase-forming components; assay type: physicochemical, bovine; conditions: 1.0 mg/mL BSA, 10 mM component
property: ΔG (kcal/mol)
Express it in kcal/mol; write the number only.

[in] What does the record list as ΔG for OC[C@H]1O[C@@](CO)(O[C@H]2O[C@H](CO)[C@@H](O)[C@H](O)[C@H]2O)[C@@H](O)[C@@H]1O ?
[out] 25.17

====

molecular target: BSA (Bos taurus); construct: purchased Millipore Sigma-Aldrich; assay: DSC thermal unfolding of BSA in water and aqueous solutions of ABS phase-forming components; format: physicochemical, bovine; settings: 1.0 mg/mL BSA, 10 mM component
The following molecules are listed with their measured ΔHcal values.
Give a bare numeral; the unit kcal/mol is implied.

Example entries begin here.
{"columns": ["molecule", "units", "ΔHcal"],
 "data": [
  ["C[N+](C)(C)CCO.C[N+](C)(C)CCO.O=P([O-])(O)O.O=P([O-])(O)O [[N1112(OH)][H2PO4]]", "kcal/mol", 122.8],
  ["C[N+](C)(C)CCO.O=S(=O)([O-])C(F)(F)C(F)(F)C(F)(F)C(F)(F)F [[N1112(OH)][C4F9SO3]]", "kcal/mol", 197.9],
  ["CCCCn1cc[n+](C)c1.O=S(=O)([O-])C(F)(F)F [[C4C1Im][CF3SO3]]", "kcal/mol", 123.7],
  ["CCn1cc[n+](C)c1.O=S(=O)([O-])C(F)(F)C(F)(F)C(F)(F)C(F)(F)F", "kcal/mol", 183.6]
]}

[in] May I ask what ΔHcal has been recorded for OC[C@H]1O[C@@](CO)(O[C@H]2O[C@H](CO)[C@@H](O)[C@H](O)[C@H]2O)[C@@H](O)[C@@H]1O ?
[out] 159

====

molecular target: BSA (Bos taurus, UniProt P02769); construct: purchased Millipore Sigma-Aldrich; assay: DSC thermal unfolding of BSA in water and aqueous solutions of ABS phase-forming components; format: physicochemical, bovine; conditions: 1.0 mg/mL BSA, 1 mM component
property: Tm (°C)
Write the answer as a number in °C, unit excluded.

Before answering, review these 3 worked examples.
{"columns": ["compound", "Tm / °C"],
 "data": [
  ["C[N+](C)(C)CCO.O=S(=O)([O-])C(F)(F)C(F)(F)C(F)(F)C(F)(F)F [[N1112(OH)][C4F9SO3]]", 80.57],
  ["C[N+](C)(C)CCO.C[N+](C)(C)CCO.O=P([O-])(O)O.O=P([O-])(O)O [[N1112(OH)][H2PO4]]", 81.59],
  ["CCn1cc[n+](C)c1.O=S(=O)([O-])C(F)(F)C(F)(F)C(F)(F)C(F)(F)F", 75.62]
]}

[in] Please report the recorded Tm for CCCCn1cc[n+](C)c1.O=S(=O)([O-])C(F)(F)F [[C4C1Im][CF3SO3]] .
[out] 75.31

[in] Quick one: Tm of OC[C@H]1O[C@@](CO)(O[C@H]2O[C@H](CO)[C@@H](O)[C@H](O)[C@H]2O)[C@@H](O)[C@@H]1O [Sucrose, sucrose] ?
[out] 81.63

====

molecular target: BSA (Bos taurus); construct: purchased Millipore Sigma-Aldrich; assay: Far-UV CD secondary structure of BSA (CONTIN-LL deconvolution); format: physicochemical, bovine; design: unit not given here; conditions: 1.0 mg/mL BSA, 1 mM component, 25 °C
property: Distorted Beta Sheet
API note: the answer field is a bare number with no unit suffix.

# example entries with known answers
{"columns": ["molecule", "Distorted Beta Sheet"],
 "data": [
  ["C[N+](C)(C)CCO.O=S(=O)([O-])C(F)(F)C(F)(F)C(F)(F)C(F)(F)F [[N1112(OH)][C4F9SO3]]", 0.024],
  ["CCCCn1cc[n+](C)c1.O=S(=O)([O-])C(F)(F)F [[C4C1Im][CF3SO3]]", 0.023]
]}

[in] Which Distorted Beta Sheet is reported for this molecule? CCn1cc[n+](C)c1.O=S(=O)([O-])C(F)(F)C(F)(F)C(F)(F)C(F)(F)F
[out] 0.025

[in] Given C[N+](C)(C)CCO.C[N+](C)(C)CCO.O=P([O-])(O)O.O=P([O-])(O)O [[N1112(OH)][H2PO4]] , state its recorded Distorted Beta Sheet.
[out] 0.023

[in] # lookup: Distorted Beta Sheet of OC[C@H]1O[C@@](CO)(O[C@H]2O[C@H](CO)[C@@H](O)[C@H](O)[C@H]2O)[C@@H](O)[C@@H]1O
[out] 0.023
